- Tested on: Stenotrophomonas maltophilia
- PROCEDURE_TEXT: Antimicrobial activity against Stenotrophomonas maltophilia incubated for 16 to 18 hrs by broth dilution assay
- Assay type: functional
- MEASUREMENT_CONTEXT: time 16-18 hrs
Field: MIC. Provide a value for each of the compounds that follow.
Respond with the bare value in µg/mL.

Documented MIC of C[C@@H](O)[C@H]1C(=O)N2C(C(=O)O)=C(S[C@@H]3CN[C@H](C(=O)N(C)C)C3)[C@H](C)[C@H]12 : 0.031

Documented MIC of CCCCCC[n+]1ccc(SCC2=C(C(=O)OCc3ccc(OC)cc3)N3C(=O)[C@@H](NC(=O)Cc4ccccc4)[C@H]3SC2)cc1.O=C([O-])C(F)(F)F : 64

Documented MIC of CCCCCCCC[n+]1ccc(C(=O)N[C@@H]2C(=O)N3C(C(=O)OC(c4ccccc4)c4ccccc4)=C(COC(C)=O)CS[C@H]23)cc1.[I-] : 32

Documented MIC of CCCCCCCCCCCC[n+]1ccc(-c2cc[n+](CC3=C(C(=O)OCc4ccc(OC)cc4)N4C(=O)[C@@H](NC(=O)Cc5ccccc5)[C@H]4SC3)cc2)cc1.[I-].[I-] : 32

Documented MIC of CCCCCCCC[n+]1ccc(-c2cc[n+](CC3=C(C(=O)OCc4ccc(OC)cc4)N4C(=O)[C@@H](NC(=O)Cc5ccccc5)[C@H]4SC3)cc2)cc1.[I-].[I-] : 128

----------
Field: MIC. Provide a value for each of the molecules that follow.
- Test system: Staphylococcus aureus
- PROCEDURE_TEXT: Antimicrobial activity against Staphylococcus aureus incubated for 16 to 18 hrs by broth dilution assay
- Assay type: functional
- MEASUREMENT_CONTEXT: time 16-18 hrs
Respond with the bare value in µg/mL.

Documented MIC of CCCCCCCCNC(=O)c1cc[n+](CC2=C(C(=O)O)N3C(=O)[C@@H](NC(=O)Cc4ccccc4)[C@H]3SC2)cc1.[I-] : 0.063

Documented MIC of CCCCCCNC(=O)c1ccc[n+](CC2=C(C(=O)O)N3C(=O)[C@@H](NC(=O)Cc4ccccc4)[C@H]3SC2)c1.[I-] : 0.125

Documented MIC of CCCCNC(=O)c1ccc[n+](CC2=C(C(=O)O)N3C(=O)[C@@H](NC(=O)Cc4ccccc4)[C@H]3SC2)c1.[I-] : 0.125

Documented MIC of CC[n+]1ccc(SCC2=C(C(=O)OCc3ccc(OC)cc3)N3C(=O)[C@@H](NC(=O)Cc4ccccc4)[C@H]3SC2)cc1.O=C([O-])C(F)(F)F : 0.125

Documented MIC of CCCC[n+]1ccc(SCC2=C(C(=O)O)N3C(=O)[C@@H](NC(=O)Cc4ccccc4)[C@H]3SC2)cc1.O=C([O-])C(F)(F)F : 0.063

Documented MIC of CCCCCCCCCCNC(=O)c1ccc[n+](CC2=C(C(=O)O)N3C(=O)[C@@H](NC(=O)Cc4ccccc4)[C@H]3SC2)c1.[I-] : 0.063

Documented MIC of CCCCNC(=O)c1ccc[n+](CC2=C(C(=O)OCc3ccc(OC)cc3)N3C(=O)[C@@H](NC(=O)Cc4ccccc4)[C@H]3SC2)c1.[I-] : 0.25

Documented MIC of CCCCCCCCCCCC[n+]1ccc(-c2cc[n+](CC3=C(C(=O)[O-])N4C(=O)[C@@H](NC(=O)Cc5ccccc5)[C@H]4SC3)cc2)cc1.O=C([O-])C(F)(F)F : 0.25

Documented MIC of CCCCCC[n+]1ccc(SCC2=C(C(=O)O)N3C(=O)[C@@H](NC(=O)Cc4ccccc4)[C@H]3SC2)cc1.O=C([O-])C(F)(F)F : 0.063

Documented MIC of CCCCCCCC[n+]1ccc(C(=O)N[C@@H]2C(=O)N3C(C(=O)OC(c4ccccc4)c4ccccc4)=C(COC(C)=O)CS[C@H]23)cc1.[I-] : 16

Documented MIC of CCCCCCCCCCCCNC(=O)c1ccc[n+](CC2=C(C(=O)OCc3ccc(OC)cc3)N3C(=O)[C@@H](NC(=O)Cc4ccccc4)[C@H]3SC2)c1.[I-] : 0.25

----------
Field: MIC. Provide a value for each of the compounds that follow.
- Tested on: Stenotrophomonas maltophilia
- PROCEDURE_TEXT: Antimicrobial activity against Stenotrophomonas maltophilia incubated for 16 to 18 hrs by broth dilution assay
- Type: functional
- MEASUREMENT_CONTEXT: time 16-18 hrs
Respond with the bare value in mg/L.

Documented MIC of CCCCCC[n+]1ccc(SCC2=C(C(=O)O)N3C(=O)[C@@H](NC(=O)Cc4ccccc4)[C@H]3SC2)cc1.O=C([O-])C(F)(F)F : 32

Documented MIC of CCCCCCNC(=O)c1cc[n+](CC2=C(C(=O)O)N3C(=O)[C@@H](NC(=O)Cc4ccccc4)[C@H]3SC2)cc1.[I-] : 64

Documented MIC of CCCCCCCCCC[n+]1ccc(C(=O)N[C@@H]2C(=O)N3C(C(=O)OC(c4ccccc4)c4ccccc4)=C(COC(C)=O)CS[C@H]23)cc1.[I-] : 32

----------
- PROCEDURE_TEXT: Cytotoxicity against human HeLa cells incubated for 24 hrs by CCK8 assay
- Assay type: toxicity, cell-based
READOUT_KIND: CC50 at 24 h (µg/mL)
Respond with the bare value in µg/mL.

Documented CC50 at 24 h of CCCCCCCCCC[n+]1ccc(-c2cc[n+](CC3=C(C(=O)[O-])N4C(=O)[C@@H](NC(=O)Cc5ccccc5)[C@H]4SC3)cc2)cc1.O=C([O-])C(F)(F)F : 26.9

Documented CC50 at 24 h of CCCCCCCCCCCCCCCC[n+]1ccc(-c2cc[n+](CC3=C(C(=O)[O-])N4C(=O)[C@@H](NC(=O)Cc5ccccc5)[C@H]4SC3)cc2)cc1.O=C([O-])C(F)(F)F : 34.7

----------
Field: MIC. Provide a value for each of the compounds that follow.
- System: Stenotrophomonas maltophilia
- PROCEDURE_TEXT: Antimicrobial activity against Stenotrophomonas maltophilia incubated for 16 to 18 hrs by broth dilution assay
- Assay type: functional
- MEASUREMENT_CONTEXT: time 16-18 hrs
Respond with the bare value in µg/mL.

Documented MIC of CCCC[n+]1ccc(SCC2=C(C(=O)O)N3C(=O)[C@@H](NC(=O)Cc4ccccc4)[C@H]3SC2)cc1.O=C([O-])C(F)(F)F : 8

Documented MIC of CC[n+]1ccc(SCC2=C(C(=O)O)N3C(=O)[C@@H](NC(=O)Cc4ccccc4)[C@H]3SC2)cc1.O=C([O-])C(F)(F)F : 8

Documented MIC of CCCCNC(=O)c1ccc[n+](CC2=C(C(=O)O)N3C(=O)[C@@H](NC(=O)Cc4ccccc4)[C@H]3SC2)c1.[I-] : 128

Documented MIC of CCCCCC[n+]1ccc(-c2cc[n+](CC3=C(C(=O)OCc4ccc(OC)cc4)N4C(=O)[C@@H](NC(=O)Cc5ccccc5)[C@H]4SC3)cc2)cc1.[I-].[I-] : 64

Documented MIC of CCCCCCCC[n+]1ccc(-c2cc[n+](CC3=C(C(=O)[O-])N4C(=O)[C@@H](NC(=O)Cc5ccccc5)[C@H]4SC3)cc2)cc1.O=C([O-])C(F)(F)F : 64

----------
Field: HC50 at 1 h. Provide a value for each of the compounds that follow.
- PROCEDURE_TEXT: Hemolytic activity in sheep red blood cells incubated for 1 hr
- Type: toxicity, cell-based, Ovis aries, Erythrocyte

Documented HC50 at 1 h of CCCCCCNC(=O)c1ccc[n+](CC2=C(C(=O)O)N3C(=O)[C@@H](NC(=O)Cc4ccccc4)[C@H]3SC2)c1.[I-] : > 1280 µg/mL

Documented HC50 at 1 h of CC(=O)OCC1=C(C(=O)O)N2C(=O)[C@@H](NC(=O)Cc3cccs3)[C@H]2SC1 : > 1280 µg/mL

Documented HC50 at 1 h of CCCCCCCCCCCC[n+]1ccc(-c2cc[n+](CC3=C(C(=O)[O-])N4C(=O)[C@@H](NC(=O)Cc5ccccc5)[C@H]4SC3)cc2)cc1.O=C([O-])C(F)(F)F : 333 µg/mL

Documented HC50 at 1 h of C[C@@H](O)[C@H]1C(=O)N2C(C(=O)O)=C(S[C@@H]3CN[C@H](C(=O)N(C)C)C3)[C@H](C)[C@H]12 : > 1280 µg/mL

Documented HC50 at 1 h of O=C(Cc1ccccc1)N[C@@H]1C(=O)N2C(C(=O)O)=C(C[n+]3ccccc3)CS[C@H]12.[I-] : > 1280 µg/mL

Documented HC50 at 1 h of CCCCCCCCCC[n+]1ccc(-c2cc[n+](CC3=C(C(=O)OCc4ccc(OC)cc4)N4C(=O)[C@@H](NC(=O)Cc5ccccc5)[C@H]4SC3)cc2)cc1.[I-].[I-] : > 1280 µg/mL

Documented HC50 at 1 h of CCCCCC[n+]1ccc(-c2cc[n+](CC3=C(C(=O)OCc4ccc(OC)cc4)N4C(=O)[C@@H](NC(=O)Cc5ccccc5)[C@H]4SC3)cc2)cc1.[I-].[I-] : > 1280 µg/mL

Documented HC50 at 1 h of CCCCCCCCCCCCNC(=O)c1ccc[n+](CC2=C(C(=O)O)N3C(=O)[C@@H](NC(=O)Cc4ccccc4)[C@H]3SC2)c1.[I-] : 291 µg/mL

Documented HC50 at 1 h of CCCCCCCCCCCCCCCC[n+]1ccc(-c2cc[n+](CC3=C(C(=O)OCc4ccc(OC)cc4)N4C(=O)[C@@H](NC(=O)Cc5ccccc5)[C@H]4SC3)cc2)cc1.[I-].[I-] : 109 µg/mL

Documented HC50 at 1 h of CCCCCCCCCCCCNC(=O)c1cc[n+](CC2=C(C(=O)O)N3C(=O)[C@@H](NC(=O)Cc4ccccc4)[C@H]3SC2)cc1.[I-] : 254 µg/mL

Documented HC50 at 1 h of CCCCCC[n+]1ccc(-c2cc[n+](CC3=C(C(=O)[O-])N4C(=O)[C@@H](NC(=O)Cc5ccccc5)[C@H]4SC3)cc2)cc1.O=C([O-])C(F)(F)F : > 1280 µg/mL

Documented HC50 at 1 h of CCCCCCCCNC(=O)c1ccc[n+](CC2=C(C(=O)O)N3C(=O)[C@@H](NC(=O)Cc4ccccc4)[C@H]3SC2)c1.[I-] : > 1280 µg/mL

Documented HC50 at 1 h of CCCCNC(=O)c1cc[n+](CC2=C(C(=O)O)N3C(=O)[C@@H](NC(=O)Cc4ccccc4)[C@H]3SC2)cc1.[I-] : > 1280 µg/mL
